# Test system: UACC-257
# measurement_description: NCI tumour cell line growth inhibition, 48 h
Structures can show the parent of a compound that is named as a salt. Activity calls are given as the source filed them. No stated cut-off is given here; in the data, active = GI50 up to about 1.1 µM and inactive = higher.
measured_attribute: GI50

Qu. Bench note: what GI50 did "CC(C)(C)NC(=O)/C(=C\Sc1ccccc1)c1ccc2c(c1)OCO2" show?
Ans. 25.4 µM (inactive)

Qu. Bench note: what GI50 did "Cc1nc2ccc(/N=N/N(C)C)cc2[nH]1" show?
Ans. > 100 µM (inactive)

Qu. Bench note: what GI50 did CC1=NCCc2c1[nH]c1cc(O)ccc21 [HARMALOL HYDROCHLORIDE] show?
Ans. > 100 µM (inactive)

Qu. Bench note: what GI50 did "N#Cc1nc(C#N)c(NC(=O)c2ccccc2C(=O)O)[nH]1" show?
Ans. > 100 µM (inactive)

Qu. Bench note: what GI50 did "O=C(O)c1cc(S(=O)(=O)N/N=C\c2c3ccccc3[n+]([O-])c3ccccc23)ccc1O" show?
Ans. 26.1 µM (inactive)

Qu. Bench note: what GI50 did COc1cc2c(cc1O)C1CC(CC3CCCCN31)OC(=O)/C=C\c1ccc(O)c-2c1 (configuration not stated) show?
Ans. 19.1 µM (inactive)

Qu. Bench note: what GI50 did CCCCC[C@@H]1CCCC2NC(CCCCCO[Si](c3ccccc3)(c3ccccc3)C(C)(C)C)CCC21 (some centres not stated) show?
Ans. 15.2 µM (inactive)

Qu. Bench note: what GI50 did "c1ccc2c(c1)cc1ccc3cccc4ccc2c1c34" show?
Ans. > 100 µM (inactive)

Qu. Bench note: what GI50 did "O=C(c1ccccc1)c1c(C(F)(F)F)[n+]([O-])c2ccccc2[n+]1[O-]" show?
Ans. 1.84 µM (inactive)

Qu. Bench note: what GI50 did CCOC(=O)CCC(NC(=O)c1ccc(Nc2nc3ccccc3n3cccc23)cc1)C(=O)OCC (configuration not stated) show?
Ans. 26.2 µM (inactive)

Qu. Bench note: what GI50 did "Nc1nc(Cl)cc(NCC2(CO)CCCC2)n1" show?
Ans. 65.8 µM (inactive)

Qu. Bench note: what GI50 did "N#Cc1c(-c2cccc(Cl)c2)cc(-c2ccc(Cl)cc2)nc1N" show?
Ans. 15.3 µM (inactive)

Qu. Bench note: what GI50 did "C1=C(c2ccccc2)SC=C(c2ccccc2)S1" show?
Ans. 57.7 µM (inactive)

Qu. Bench note: what GI50 did "O=c1[nH]nc(Cc2ccccc2)n1/N=C/c1ccncc1" show?
Ans. > 100 µM (inactive)

Qu. Bench note: what GI50 did "COC(=O)c1ccc2c(c1)CC1(C2)Cc2cc3c(cc2C1)CCC3" show?
Ans. > 100 µM (inactive)

Qu. Bench note: what GI50 did Cc1cccc(C(C)O)n1 (configuration not stated) show?
Ans. > 100 µM (inactive)

Qu. Bench note: what GI50 did "COc1ccc(/C=N/c2ccc(-c3nc4ccccc4s3)cc2)cc1OC" show?
Ans. 22.7 µM (inactive)

Qu. Bench note: what GI50 did "CC(C)(C)c1cc(OCc2nnc3sc(-c4ccc(Cl)cc4)nn23)c(Cl)cc1OCc1nnc2sc(-c3ccc(Cl)cc3)nn12" show?
Ans. 11.5 µM (inactive)

Qu. Bench note: what GI50 did COc1cc2cc(C(=O)N3CC(CCl)c4ccc([N+](=O)[O-])cc43)[nH]c2c(OC)c1OC (configuration not stated) show?
Ans. > 100 µM (inactive)

Qu. Bench note: what GI50 did CC1CC2OC(=O)C(C)C2CC2(C)C(OC3OC(CO)C(O)C(O)C3O)OCCC12 (configuration not stated) show?
Ans. > 100 µM (inactive)

Qu. Bench note: what GI50 did "c1ccc(Nc2nnc(-c3nsc4ccccc34)o2)cc1" show?
Ans. > 100 µM (inactive)

Qu. Bench note: what GI50 did CC(C)(C)[Si](C)(C)Oc1ccc(C2CNC(=O)C23CCC(=O)N3Cc2ccccc2)cc1 (configuration not stated) show?
Ans. 12.4 µM (inactive)
